Value source: patent US10364234B2

Assay: Pharmacokinetics assay in SD rats, intragastric administration
Type: in vivo
Conditions: both sexes, Sprague-Dawley, rat, plasma, oral 5 mg/kg, read-out: Clearance CLz/F
Test readout: CL/F (L/h/kg)

smiles_string=COc1cc(C(=O)NC2CCN(C[C@H](O)c3ccc4c(c3C)COC4=O)CC2)ncc1C#N observed_value=0.589

* * *

Each entry below carries its recorded IC50.
Target: human ROMK channel (Homo sapiens (Human))
Sequence (P48048 whole entry): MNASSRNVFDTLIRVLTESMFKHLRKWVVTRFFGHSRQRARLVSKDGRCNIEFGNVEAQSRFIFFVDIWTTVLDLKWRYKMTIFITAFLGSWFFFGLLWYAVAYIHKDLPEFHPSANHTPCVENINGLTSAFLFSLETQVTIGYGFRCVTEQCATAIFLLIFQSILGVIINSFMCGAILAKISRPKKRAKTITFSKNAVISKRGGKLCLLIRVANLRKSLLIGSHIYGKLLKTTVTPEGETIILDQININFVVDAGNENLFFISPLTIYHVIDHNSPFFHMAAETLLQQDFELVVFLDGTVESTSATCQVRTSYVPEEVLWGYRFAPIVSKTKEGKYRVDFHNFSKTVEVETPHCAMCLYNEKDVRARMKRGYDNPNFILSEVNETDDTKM
Test: FluxOR potassium ion channel assay, human ROMK/HEK293 cells
Format: cell-based
Test readout: IC50 (nM)

molecule="COc1cc(C(=O)NC2CCN(C[C@H](O)c3ccc4c(c3C)COC4=O)CC2)ncc1C#N [Example 1]" observed_value=40
molecule="CCOc1cc(C(=O)NC2CCN(C[C@H](O)c3ccc4c(c3C)COC4=O)CC2)ncc1C#N [Example 2]" observed_value=28

* * *

Each entry below carries its recorded pIC50.
Biological target: UniProt:P35560
Sequence (P35560 whole entry): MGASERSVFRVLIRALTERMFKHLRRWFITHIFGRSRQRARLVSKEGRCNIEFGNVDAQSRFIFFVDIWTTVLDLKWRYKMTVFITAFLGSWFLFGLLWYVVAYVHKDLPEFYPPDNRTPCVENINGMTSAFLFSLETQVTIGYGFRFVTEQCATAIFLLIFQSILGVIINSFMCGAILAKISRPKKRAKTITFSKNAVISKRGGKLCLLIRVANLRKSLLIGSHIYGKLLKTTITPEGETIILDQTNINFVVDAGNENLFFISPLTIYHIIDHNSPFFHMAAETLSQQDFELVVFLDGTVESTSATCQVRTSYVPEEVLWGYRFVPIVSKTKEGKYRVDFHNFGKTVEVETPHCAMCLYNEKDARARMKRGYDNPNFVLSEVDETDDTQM
Experiment: FluxOR potassium ion channel assay, rat ROMK/HEK293 cells
pIC50: −log10 of the molar value.
Test readout: pIC50

compound="COc1cc(C(=O)NC2CCN(C[C@H](O)c3ccc4c(c3C)COC4=O)CC2)ncc1C#N [Example 1]" observed_value=6.72
compound="CCOc1cc(C(=O)NC2CCN(C[C@H](O)c3ccc4c(c3C)COC4=O)CC2)ncc1C#N [Example 2]" observed_value=7.05
